Tested on: Trichoplusia ni
Details: in vivo, 24 h
Description: Toxicity against third-instar larval stage of Trichoplusia ni (cabbage looper) assessed as mortality at 0.25% after 24 hr by contact toxicity bioassay
Kindly supply the reported mortality values for the records listed here.
One number for each entry, in %.

Would you mind listing mortality for each of the following molecules?
1. C=CCOc1cccc(OCC=C)c1
2. C=CCOc1cccc(OC)c1
3. C=CCc1cccc(OC)c1OCC
4. C=CCc1cc(OCCC)ccc1OCCC

Resp:
13
33
27
17

Would you mind listing mortality for each of the following molecules?
1. C=CCc1cc(OCCC(C)C)ccc1OC
2. C=CCc1cc(OCCCC)ccc1OC
3. C=CCc1cccc(OCC)c1OCCC
4. CCOc1ccc2c(c1)CC(C)O2 (stereo not given)
5. C=CCc1cc(OCCC)ccc1OCCC(C)C

Resp:
17
17
47
1
27

Would you mind listing mortality for each of the following molecules?
1. C=CCc1ccc(O)c(OC)c1
2. C=CCc1cccc(OCCC)c1O
3. C=CCc1cccc(OCCC)c1OC
4. C=CCc1cc(OCCC)ccc1OCC
5. C=CCc1cccc(OCCC)c1OCC
6. COc1cccc(OCCC(C)C)c1

Resp:
1. 30
2. 17
3. 17
4. 3.3
5. 27
6. 30

----------
Test system: Trichoplusia ni
Experiment: Feeding deterrent activity against freshly molted third-instar larval stage of Trichoplusia ni (cabbage looper) in compound pretreated cabbage leaves at 50 ug/cm2 after 3 to 5 hr by leaf disk choice bioassay
Format: functional
assay.endpoint: Activity (%)
One number for each entry, in %.

// known answers, use as guide
[
  {
    "molecule": "C=CCOc1ccccc1OCCC",
    "target.of.assay": "Trichoplusia ni",
    "Activity (%)": 96
  },
  {
    "molecule": "C=CCc1cccc(OCC)c1OCC",
    "target.of.assay": "Trichoplusia ni",
    "Activity (%)": 100
  },
  {
    "molecule": "C=CCc1cc(OCCCC)ccc1OCCCC",
    "target.of.assay": "Trichoplusia ni",
    "Activity (%)": 23
  },
  {
    "molecule": "C=CCc1ccc(OCCCC)c(OC)c1",
    "target.of.assay": "Trichoplusia ni",
    "Activity (%)": 92
  },
  {
    "molecule": "C=CCc1cc(OCCC)ccc1OCCC",
    "target.of.assay": "Trichoplusia ni",
    "Activity (%)": 65
  }
]

Would you mind listing Activity for each of the following molecules?
1. CCCOc1ccc(OCC)cc1
2. C=CCc1cc(OCC)ccc1OC
3. C=CCOc1ccc(OCC)cc1
4. C=CCc1cc(OCCCC)ccc1OCCC(C)C

Resp:
[100, 68, 73, 83]

Would you mind listing Activity for each of the following molecules?
1. C=CCc1cccc(OC)c1OCC
2. C=CCc1cccc(OCCC(C)C)c1OC
3. C=CCc1cccc(OC)c1O
4. C=CCOc1c(CC=C)cccc1OCCC
5. C=CCc1cc(OCCCC)ccc1O
6. C=CCc1cccc(OCC)c1OCCC(C)C

Resp:
[100, 100, 100, 22, 51, 22]

Would you mind listing Activity for each of the following molecules?
1. C=CCc1ccc(OCCC)c(OC)c1
2. C=CCc1cccc(OCCC)c1OCCCC
3. C=CCc1cccc(OCCC)c1O
4. C=CCc1cc(OCC)ccc1O
5. C=CCc1ccc(O)c(OC)c1
6. CCN(CC)C(=O)c1cccc(C)c1 [DIETHYLTOLUAMIDE]

Resp:
1. 84
2. 6
3. 100
4. 51
5. 44
6. 60

Would you mind listing Activity for each of the following molecules?
1. C=CCc1cc(OCCC)ccc1O
2. C=CCc1cc(OC)ccc1OCCC(C)C
3. CCCOc1cccc(OCCC(C)C)c1
4. C=CCOc1ccc(OCCC(C)C)cc1CC=C
5. C=CCOc1c(CC=C)cccc1OCCC(C)C
6. C=CCc1cccc(OC)c1OCCCC

Resp:
[51, 83, 97, 29, 22, 6]

Would you mind listing Activity for each of the following molecules?
1. C=CCc1cc(OCCCC)ccc1OC
2. C=CCOc1ccccc1OCCCC
3. C=CCOc1ccc(OCCC)cc1
4. C=CCc1cccc(OC)c1OC
5. C=CCc1cccc(OCCCC)c1O
6. CCCOc1ccc2c(c1)CC(C)O2 (centres undefined)
7. C=CCc1cccc(OCC)c1OCCCC
8. C=CCOc1ccc(OCCC)cc1CC=C

Resp:
1: 68; 2: 92; 3: 100; 4: 100; 5: 100; 6: 100; 7: 6; 8: 29

Would you mind listing Activity for each of the following molecules?
1. CCCCOc1ccccc1OCCC
2. C=CCc1cccc(OCCC(C)C)c1OCCCC
3. C=CCc1cccc(OC)c1OCCC
4. C=CCc1cc(OCCC(C)C)ccc1OC
5. C=CCc1cc(OCC)ccc1OCC
6. C=CCOc1c(CC=C)cccc1OCCCC

Resp:
[98, 6, 31, 68, 66, 22]

Would you mind listing Activity for each of the following molecules?
1. C=CCc1cccc(OCCC)c1OC
2. C=CCc1cc(OCC)ccc1OCCC
3. C=CCc1cccc(OCCC(C)C)c1OCCC(C)C

Resp:
1. 100
2. 65
3. 22

Data credit: ChEMBL document CHEMBL3044971
